target: Bromodomain-containing protein 4 (Homo sapiens); assay: Binding affinity to recombinant human BRD4 BD1 and BD2 expressed in Escherichia coli BL21 incubated for 2 hrs under shaking condition by HTRF assay
// IC50 lookup, one value per entry
endpoint: IC50

* Cc1sc2c(c1C)C(c1ccc(Cl)cc1)=N[C@@H](CC(=O)N1CCC(CN3CCN(Cc4ccc(-n5c(O)nnc5-c5cc(C(C)C)c(O)cc5O)cc4)CC3)CC1)c1nnc(C)n1-2 | 100 nM
* Cc1sc2c(c1C)C(c1ccc(Cl)cc1)=N[C@@H](CC(=O)N1CCC(CCN3CCC(Cc4ccc(-n5c(O)nnc5-c5cc(C(C)C)c(O)cc5O)cc4)CC3)CC1)c1nnc(C)n1-2 | < 100 nM
* CCc1cc(-c2nnc(O)n2-c2ccc(CN3CCC(C(=O)N4CCC(CNC(=O)C[C@@H]5N=C(c6ccc(Cl)cc6)c6c(sc(C)c6C)-n6c(C)nnc65)C4)CC3)cc2)c(O)cc1O (stereo partly drawn) | < 100 nM

###

// IC50 lookup, one value per entry
molecular target: Bromodomain-containing protein 4 (Homo sapiens, UniProt O60885); assay: Binding affinity to recombinant human BRD4 BD1 and BD2 expressed in Escherichia coli BL21 incubated for 2 hrs under shaking condition by HTRF assay
endpoint: IC50 (nM)

- Cc1sc2c(c1C)C(c1ccc(Cl)cc1)=N[C@@H](CC(=O)N1CCC(CN3CCN(Cc4ccc(-n5c(O)nnc5-c5cc(C(C)C)c(O)cc5O)cc4)CC3)CC1)c1nnc(C)n1-2: 100
- CCc1cc(-c2nnc(C(=O)NCC(F)(F)F)n2-c2ccc(CN3CCN(CC4CCN(C(=O)C[C@@H]5N=C(c6ccc(Cl)cc6)c6c(sc(C)c6C)-n6c(C)nnc65)CC4)CC3)cc2)c(O)cc1O: 100
- CCc1cc(-c2nnc(O)n2-c2ccc(CN3CCN(CC4CCN(C(=O)C[C@@H]5N=C(c6ccc(Cl)cc6)c6c(sc(C)c6C)-n6c(C)nnc65)CC4)CC3)cc2)c(O)cc1O: 100

Provenance of the data: ChEMBL document CHEMBL4680366
